Cited source for all entries: patent US12365738B2

# kd listing for each entry below
Biological target: T1, hIL-11Rα (Homo sapiens, UniProt Q14626)
T1 sequence (Q14626 23-422): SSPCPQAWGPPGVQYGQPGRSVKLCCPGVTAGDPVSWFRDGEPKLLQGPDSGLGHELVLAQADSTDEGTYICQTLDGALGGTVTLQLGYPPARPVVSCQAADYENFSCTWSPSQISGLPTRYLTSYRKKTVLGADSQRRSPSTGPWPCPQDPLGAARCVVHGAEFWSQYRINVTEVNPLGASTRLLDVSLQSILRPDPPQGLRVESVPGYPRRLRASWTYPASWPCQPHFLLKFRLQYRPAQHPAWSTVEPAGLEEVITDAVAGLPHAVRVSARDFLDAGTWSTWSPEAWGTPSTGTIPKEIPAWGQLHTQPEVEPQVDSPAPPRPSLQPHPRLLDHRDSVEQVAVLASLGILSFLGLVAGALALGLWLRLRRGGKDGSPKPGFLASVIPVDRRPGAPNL
Assay: Kinetic binding analysis by biolayer interferometry (protein G biosensors, Octet RED96e)

Some molecules with known kd results, for comparison:
The recorded kd for entry mAb15: anti-IL-11Rα antibody, human IgG4 (S228P), kappa; VH SEQ ID NO: 221, VL SEQ ID NO: 222 (antibody, V domains shown, IgG4 S228P kappa constant regions; mAb15 VH Chain; mAb15 VL Chain) VH: EVQLLESGGGLVQPGGSLRLSCAASGFTFSWYSMTWVRQAPGKGLEWVSSIVPYGDLTQYADSVKGRFTISRDNSKNTLYLQMNSLRAEDTAVYYCAKGPGWGSFDLWGRGTLVTVSS VL: DIQMTQSPSSLSASVGDRVTITCQASQDINNYLNWYQQKPGKAPKLLIYDASNLQTGVPSRFSGSGSGTDFTFTISSLQPEDIATYYCQQHETQTPTFGPGTKVDIK equals <1e-07 s⁻¹

The recorded kd for entry mAb9: anti-IL-11Rα antibody, human IgG4 (S228P), kappa; VH SEQ ID NO: 209, VL SEQ ID NO: 210 (antibody, V domains shown, human IgG4 S228P and kappa constant regions; mAb9 VH Chain; mAb9 VL Chain) VH: EVQLLESGGGLVQPGGSLRLSCAASGFTFSWYSMTWVRQAPGKGLEWVSGIVPYGDLTQYADSVKGRFTISRDNSKNTLYLQMNSLRAEDTAVYYCAKGPGWGSFDLWGRGTLVTVSS VL: DIQMTQSPSSLSASVGDRVTITCQASQDINNYLNWYQQKPGKAPKLLIYDASNLQTGVPSRFSGSGSGTDFTFTISSLQPEDIATYYCQQHESQSPTFGPGTKVDIK equals <1e-07 s⁻¹

Proceed to the following item.
The recorded kd for entry mAb10: anti-IL-11Rα antibody, human IgG4 (S228P), kappa; VH SEQ ID NO: 211, VL SEQ ID NO: 212 (antibody, V domains shown, IgG4 S228P kappa constant regions; mAb10 VH Chain; mAb10 VL Chain) VH: EVQLLESGGGLVQPGGSLRLSCAASGFTFSWYSMTWVRQAPGKGLEWVSSIVAYGDLTQYADSVKGRFTISRDNSKNTLYLQMNSLRAEDTAVYYCAKGPGWGSFDLWGRGTLVTVSS VL: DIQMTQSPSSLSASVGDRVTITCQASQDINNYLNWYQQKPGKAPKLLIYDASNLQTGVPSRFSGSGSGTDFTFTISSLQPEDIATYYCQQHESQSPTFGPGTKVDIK equals 0.000416 s⁻¹
